Assay: qHTS for Inhibitors of human tyrosyl-DNA phosphodiesterase 1 (TDP1): qHTS in cells in presence of CPT; also: nearly all actives have a fitted effect of over 55% in size
Settings: chicken DT40 Tdp1-/-;hTDP1 cells + 20 nM CPT, ATP luminescence, 48 h; series mostly up to 46.2 µM
The whole screen tested about 420,000 compounds, of which about 50,000 (12%) were called active. About 26% were inconclusive and are not listed. Calls follow the shape of the dose curve; as a rule, active = well fitted inhibition curve with a large enough effect; inconclusive = small, poorly fitted or top-dose-only effect; inactive = flat fitted curve, though single readings scatter. The list comes from a sample in which actives are over-represented; it also holds close analogues and randomly drawn compounds.
Parameter call: string, one of active, inactive

See these solved cases before continuing.
>>> label_value("Cc1cnc(NC(=O)CSc2nnc(-c3ccccc3)n2Cc2ccccc2)s1")
"inactive"
>>> label_value("COc1ccc(CC(=O)NCc2nnc(SCC(=O)Nc3ncc(C)s3)n2C)cc1")
"active"
>>> label_value("COC(=O)c1ccc(NC(=O)CSc2nnc(CNc3ccc(OC)cc3)n2C)cc1")
"inactive"
>>> label_value("O=C(N/N=C/c1ccc(Br)o1)c1cncc(Br)c1")
"inactive"
>>> label_value("CN1CCN(NC(=O)Nc2ccc(Br)cc2)CC1")
"inactive"

Field: outcome | Entry: "COc1ccc(CC(=O)NCc2nnc(SCC(=O)Nc3nccs3)n2C)cc1"
inactive

---

Experiment: qHTS for Inhibitors of human tyrosyl-DNA phosphodiesterase 1 (TDP1): qHTS in cells in presence of CPT; also: nearly all actives have a fitted effect of over 55% in size; also: potency is read from the fitted curve at half-maximal effect
Conditions: chicken DT40 Tdp1-/-;hTDP1 cells + 20 nM CPT, ATP luminescence, 48 h; series mostly up to 46.2 µM
Hit rate of the full screen: of about 420,000 compounds, about 50,000 (12%) were called active. Not shown: some 26% with an inconclusive outcome. The entries come from a sample that favours actives as a whole.
Metric name: Potency

Look over these answered cases.
>>> result("Cc1ccc(-n2c(C)cc(C(=O)CN3C(=O)C(=O)N(C4CCCC4)C3=O)c2C)cc1")
"20.6 µM (active)"
>>> result("COc1ccc(CCNC(=S)NC(=O)/C=C/c2ccc(C)cc2)cc1OC")
"inactive"
>>> result("CCC(C)C1(C2CCCC2)NC(=O)NC1=O (centres undefined)")
"inactive"
>>> result("CC(C)(C)c1ccc(C(=O)N2CCN(CCNC(=O)C(=O)Nc3ccc(F)cc3)CC2)cc1")
"16.4 µM (active)"

// Potency value for "Cc1cc(C(=O)COC(=O)C2CC2)c(C)n1-c1ccc(F)cc1" : inactive

// Potency value for "CCOC(=O)c1c(C)[nH]c(C)c1S(=O)(=O)N(C)CC(=O)Nc1ccccc1C" : inactive

// Potency value for "Cc1ccc(Nc2cc(=O)n(C3CCCCC3)c(=O)[nH]2)cc1C" : inactive

// Potency value for "CCCn1nnnc1NCc1ccc(OC)cc1" : inactive

// Potency value for "COC1=NC2=NCCN2C(OC)=N1" : inactive

// Potency value for "CC(=O)Nc1ccc(/C=N/Nc2ccc(C(=O)c3c(C)cc4ccccn34)cc2[N+](=O)[O-])cc1" : 18.4 µM (active)

// Potency value for "CCOC(=O)c1c(SCC(=O)Nc2cccc(C)c2C)nc(=O)[nH]c1C" : inactive

// Potency value for "COc1cc(OC)cc(C(=O)NCC(=O)N2CCCCCCC2)c1" : inactive

// Potency value for "Cc1n[nH]c(=O)c2c(NC(=O)COC(=O)c3ncc(Cl)c(Cl)c3Cl)oc(C)c12" : inactive

// Potency value for CCc1ccc(N(C(=O)c2csnn2)C(C(=O)NC2CCCCC2)c2ccncc2)cc1 (centres undefined) : inactive

// Potency value for "COc1ccc2[nH]c3c(=O)n(Cc4ccco4)cnc3c2c1" : inactive

// Potency value for C=CCn1c(SCC(N)=O)nnc1-c1cc2c(s1)CCC(CC)C2 (centres undefined) : inactive

// Potency value for Cc1ccc(NC(=O)COC(=O)C2C3CC4OC(=O)C2C4C3)cc1Cl (centres undefined) : inactive

---

Test: qHTS for Inhibitors of human tyrosyl-DNA phosphodiesterase 1 (TDP1): qHTS in cells in presence of CPT; also: nearly all actives have a fitted effect of over 55% in size
Conditions: chicken DT40 Tdp1-/-;hTDP1 cells + 20 nM CPT, ATP luminescence, 48 h; series mostly up to 46.2 µM
Among all 420,000 compounds or so, about 50,000 (12%) were called active. Not shown: some 26% with an inconclusive outcome. The call rests on the fitted dose curve; in most records, active means well fitted inhibition curve with a large enough effect; inconclusive means small, poorly fitted or top-dose-only effect; inactive means flat fitted curve, though single readings scatter. For the sample, actives were picked, then their nearest neighbours and some compounds at random.
Parameter call: string, one of Y = active, N = inactive

See these solved cases before continuing.
>>> label_value("Cc1[nH]c2ccccc2c1C(=O)C(=O)N(C)c1ccccc1")
"N"
>>> label_value("CCOc1ccc(N(CC(=O)NCC2CCCO2)S(=O)(=O)c2ccc(C)cc2)cc1 (stereo not given)")
"N"
>>> label_value("COc1cccc(NC(=S)N(Cc2ccc(C)cc2)Cc2ccccn2)c1")
"N"

Field: outcome | Entry: "O=C(OCN1C(=O)c2ccccc2C1=O)/C(=C\c1ccco1)NC(=O)c1ccccc1"
N

Field: outcome | Entry: "Cc1ccc(CN2CCC(CNC(=O)c3cnn(-c4ccccc4Cl)c3C3CCN(C(=O)OC(C)(C)C)CC3)CC2)cc1"
Y

Field: outcome | Entry: CSCCC(=O)N1CCCC(CNC(=O)c2ccccc2Cl)C1 (stereo not given)
N

Field: outcome | Entry: "c1ccc2c(c1)OC1OC2Oc2ccccc21"
N

---

Experiment: qHTS for Inhibitors of human tyrosyl-DNA phosphodiesterase 1 (TDP1): qHTS in cells in presence of CPT; also: nearly all actives have a fitted effect of over 55% in size; also: potency is read from the fitted curve at half-maximal effect
Details: chicken DT40 Tdp1-/-;hTDP1 cells + 20 nM CPT, ATP luminescence, 48 h; series mostly up to 46.2 µM
In all, about 420,000 compounds went through this assay and about 50,000 (12%) were called active. About 26% were inconclusive and are not listed. The list comes from a sample in which actives are over-represented; it also holds close analogues and randomly drawn compounds.
Metric name: Potency

>>> result("COc1cccc(CC(=O)OCC(=O)NCc2ccc3c(c2)OCO3)c1")
"inactive"
>>> result("O=c1[nH]c2cccnc2n(CCNc2ncc(C(F)(F)F)cc2Cl)c1=O")
"inactive"
>>> result("COc1cccc(CNC(=O)c2ccc3c(c2)sc2nc(-c4cccc(OC)c4)cn23)c1")
"6.51 µM (active)"
>>> result("CCOC(=O)N1CCN(c2c(NCCCN3CCCC(C)C3)c(=O)c2=O)CC1 (centres undefined)")
"inactive"
>>> result("COc1ccc2oc(=O)c(-c3cn4c(n3)sc3cc(OC)ccc34)cc2c1")
"inactive"

// Potency value for "C=CCC1=C/C(=C\c2c(N)n3nc(CC(=O)N4CCOCC4)sc3nc2=O)C=C(OC)C1=O" : inactive

// Potency value for "Cc1cc(-c2n[nH]c(=S)n2/N=C/c2ccco2)n[nH]1" : inactive

// Potency value for "O=C1N[C@H](Cc2c[nH]c3ccccc23)COC(=O)[C@H](Cc2ccc(F)cc2)C/C=C\C[C@H]1CC(=O)N(CCO)Cc1ccccc1" : 23.1 µM (active)

// Potency value for O=C(NCc1ccccc1)C1c2ccccc2OCC(=O)N1C1CC1 (centres undefined) : inactive

// Potency value for "COc1ccc(C(=O)NCc2cn3ccccc3n2)cc1" : inactive

// Potency value for "COc1ccccc1-n1c(C)nc2cc(C(=O)NCc3ccc4c(c3)OCO4)ccc21" : inactive

// Potency value for "COc1ccc(CCNC(=O)c2ccc3c(c2)nc(C)n3-c2ccc(Br)cc2)cc1OC" : 20.6 µM (active)

// Potency value for CCOCCCNC(=O)C1(O)c2cc(Br)ccc2NC(=O)N1c1ccc(C)c(C)c1 (centres undefined) : inactive

// Potency value for "COc1cc(OC)c(NC(=O)c2nc(-c3ccncc3)no2)cc1Cl" : inactive

// Potency value for "O=C1NC[C@@H](c2ccccc2)OC(=O)[C@H](Cc2ccc(F)cc2)CC/C=C/C[C@H]1CC(=O)N(CCO)Cc1ccccc1" : 16.4 µM (active)

// Potency value for "COc1ccc(-c2cc(C(F)(F)F)nc(NCc3cccnc3)n2)cc1" : inactive

// Potency value for "O=C(C[C@H]1C/C=C\C[C@@H](NC(=O)OCC2c3ccccc3-c3ccccc32)C(=O)O[C@@H](c2ccccc2)CNC1=O)N[C@H](CO)Cc1ccccc1" : 10.3 µM (active)

// Potency value for "O=C(N[C@@H](Cc1c[nH]c2ccccc12)C(=O)O)OCC1c2ccccc2-c2ccccc21" : inactive

// Potency value for "CCOc1ccc(Br)cc1S(=O)(=O)Nc1ccc(S(=O)(=O)Nc2cc(C)on2)cc1" : inactive

---

Test: qHTS for Inhibitors of human tyrosyl-DNA phosphodiesterase 1 (TDP1): qHTS in cells in presence of CPT; also: nearly all actives have a fitted effect of over 55% in size; also: potency is read from the fitted curve at half-maximal effect
Conditions: chicken DT40 Tdp1-/-;hTDP1 cells + 20 nM CPT, ATP luminescence, 48 h; series mostly up to 46.2 µM
About 50,000 (12%) of roughly 420,000 compounds were called active. Not shown: some 26% with an inconclusive outcome. What follows is part of a selection rich in actives, with near analogues and random picks from the rest.
Metric name: Potency

Look over these answered cases.
>>> result("COc1ccc(/C=C/C(=O)Nc2cccnc2)cc1OC")
"inactive"
>>> result("COc1ccc(S(=O)(=O)N(CCCN2CCCC2=O)Cc2cc3c(C)ccc(C)c3[nH]c2=O)cc1")
"inactive"
>>> result("O=C(CN1C(=O)COc2ccc(Cl)cc21)N1CCOCC1")
"inactive"
>>> result("CCN(CC)CC(=O)c1c[nH]c2ccc(OC)cc12")
"inactive"
>>> result("COc1ccc(/C=C/C(=O)Nc2ccc(C34CC5CC(CC(O)(C5)C3)C4)cc2)cc1OC")
"2.31 µM (active)"

// Potency value for "COc1cc(/C=C/C(=O)Nc2ccc(OC)c(S(=O)(=O)N3CCOCC3)c2)ccc1OCC#N" : inactive

// Potency value for "COc1ccc(NC(=O)c2sc3nc(-c4cc5cccc(OC)c5oc4=O)[nH]c(=O)c3c2C)cc1" : inactive
